Molecular target: IL-17A/A (Homo sapiens, UniProt Q16552)
Sequence (Q16552 24-155): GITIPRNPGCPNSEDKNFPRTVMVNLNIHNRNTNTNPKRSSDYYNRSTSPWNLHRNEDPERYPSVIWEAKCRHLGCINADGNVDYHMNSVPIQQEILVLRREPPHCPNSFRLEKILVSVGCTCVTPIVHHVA
Experiment: IL-17A/A HEK-Blue cell assay (SEAP reporter)
Settings: HEK-Blue IL-17A reporter cells, IL17A/A 5 ng/mL, 20 hours, SEAP read at A630; read-out: HEK-Blue IL17AA (IC50 for IL-17A/A inhibition)
Experimental: The HEK-Blue IL-17A reporter cell line (Fisher #NC 1408637) was used for cell-based IL-17A/A inhibition assays. Cells were grown and prepared for assays according to the manufacturer's instructions. […] Media from the cells is then added to a development reagent (Quanti-Blue Substrate, Fisher #NC971 1613), and read at A630. […]

| Structure Notation | IC50 |
| --- | --- |
| CCc1nonc1C(=O)N[C@H](c1cn2nc(C[C@@H]3C[C@H](C)CNC3=O)c(C3CCOCC3)nc2n1)C1CCC(F)(F)CC1 | < 100 nM |
| Cn1ncnc1C(=O)N[C@H](c1cn2nc(C[C@H]3C[C@@H](C(F)(F)F)CNC3=O)c(C3CCOCC3)nc2n1)C1CCC(F)(F)CC1 | < 100 nM |
| CCn1nccc1C(=O)N[C@H](c1cn2nc(C[C@H]3C[C@@H](C(F)(F)F)CNC3=O)c(CN(C)CC(F)(F)F)nc2n1)C1CCC(F)(F)CC1 | < 100 nM |

---

Biological target: IL-17A/F (Homo sapiens, UniProt Q16552+Q96PD4)
Sequence (Q16552 24-155): as above
Sequence (Q96PD4 31-163): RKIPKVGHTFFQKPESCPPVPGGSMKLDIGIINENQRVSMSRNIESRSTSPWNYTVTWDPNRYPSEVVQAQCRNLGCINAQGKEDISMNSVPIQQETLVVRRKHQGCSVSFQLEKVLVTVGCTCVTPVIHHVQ
Test: IL-17A/F HEK-Blue cell assay (SEAP reporter)
Conditions: HEK-Blue IL-17A reporter cells, IL17A/F 5 ng/mL, 20 hours, SEAP read at A630; read-out: HEK-Blue IL17AF (IC50 for IL-17A/F inhibition)
pIC50: −log10 of the molar value.
Quantity Name: pIC50

| Compound | Assay System | Observed |
| --- | --- | --- |
| CCn1nccc1C(=O)N[C@H](c1cn2nc(C[C@@H]3CC(F)(F)CNC3=O)c(C3CCOCC3)nc2n1)C1CCC(F)(F)CC1 | IL-17A/F (Homo sapiens, UniProt Q16552+Q96PD4) | < 6.00 |
| CCn1nccc1C(=O)N[C@H](c1cn2nc(CC3C[C@@H](C(F)(F)F)CNC3=O)c(N3C[C@H]4C[C@@H]3CO4)nc2n1)C1CCC(F)(F)CC1 (single isomer, unassigned) [Compound 86] | IL-17A/F (Homo sapiens, UniProt Q16552+Q96PD4) | 6.00 to 7.00 |
| CCn1nccc1C(=O)N[C@H](c1cn2nc(C[C@H]3C[C@@H](C(F)(F)F)CNC3=O)c(CCN3CCOCC3)nc2n1)C1CCC(F)(F)CC1 | IL-17A/F (Homo sapiens, UniProt Q16552+Q96PD4) | 6.00 to 7.00 |
| CCn1nccc1C(=O)N[C@H](c1cn2nc(C[C@H]3C[C@@H](C)CNC3=O)c(C3CCOCC3)nc2n1)C1CCC(F)(F)CC1 | IL-17A/F (Homo sapiens, UniProt Q16552+Q96PD4) | < 6.00 |
| CCn1nccc1C(=O)N[C@H](c1cn2nc(C[C@H]3C[C@@H](C(F)(F)F)CNC3=O)c(C3CCOC3)nc2n1)C1CCC(F)(F)CC1 (single isomer, unassigned) [Compound 62] | IL-17A/F (Homo sapiens, UniProt Q16552+Q96PD4) | 6.00 to 7.00 |
| CCn1nccc1C(=O)N[C@H](c1cn2nc(C[C@H]3C[C@@H](C(F)(F)F)CNC3=O)c(C3CCOCC3)nc2n1)C1CCCCCC1 | IL-17A/F (Homo sapiens, UniProt Q16552+Q96PD4) | > 7.00 |
| CCn1nccc1C(=O)N[C@H](c1cn2nc(C[C@H]3C(=O)NC4CC3C4)c(C3CCOCC3)nc2n1)C1CCC(F)(F)CC1 | IL-17A/F (Homo sapiens, UniProt Q16552+Q96PD4) | < 6.00 |
| CCn1nccc1C(=O)N[C@H](c1cn2nc(C[C@H]3C[C@@H](C(F)(F)F)CNC3=O)c(CN3CCOC(C)C3)nc2n1)C1CCC(F)(F)CC1 (stereo partly drawn) | IL-17A/F (Homo sapiens, UniProt Q16552+Q96PD4) | < 6.00 |
| CCn1nccc1C(=O)N[C@H](c1cn2nc(C[C@H]3C[C@@H](C(F)(F)F)CNC3=O)c(CN3CC(F)(F)C3)nc2n1)C1CCC(F)(F)CC1 | IL-17A/F (Homo sapiens, UniProt Q16552+Q96PD4) | < 6.00 |
| O=C(N[C@H](c1cn2nc(C[C@H]3C[C@@H](C(F)(F)F)CNC3=O)c(C3CCOCC3)nc2n1)C1CCC(F)(F)CC1)c1ccnn1C1CC1 | IL-17A/F (Homo sapiens, UniProt Q16552+Q96PD4) | 6.00 to 7.00 |
| CCn1nccc1C(=O)N[C@H](c1cn2nc(C[C@H]3C[C@@H](C(F)(F)F)CNC3=O)c(CCOC)nc2n1)C1CCC(F)(F)CC1 | IL-17A/F (Homo sapiens, UniProt Q16552+Q96PD4) | 6.00 to 7.00 |
| CCn1nccc1C(=O)N[C@H](c1cn2nc(C[C@H]3C[C@@H](C(F)(F)F)CNC3=O)c(N3CCCOCC3)nc2n1)C1CCC(F)(F)CC1 | IL-17A/F (Homo sapiens, UniProt Q16552+Q96PD4) | 6.00 to 7.00 |
